The measured values listed here are drawn from paper PMC12399242.

Assay: PK study in SD rats
Format: in vivo
Details: male, Sprague-Dawley, plasma, iv; SD rat, 1.0 mg/kg i.v.; read-out: MRT0–t
Measured Attribute: MRT last (h)

1) Cc1cc(-c2ccc(C#N)cc2)cc(C)c1Nc1nc(Nc2ccc(C#N)cc2)ncc1F [A12]    3.25

###

Tested on: MT-4 cells
Assay: in vitro
Details: uninfected MT-4 cells; mean ± SD, n ≥ 3
Measured Attribute: CC50

1) O=C1Nc2ccc(Cl)cc2[C@@](C#CC2CC2)(C(F)(F)F)O1 [EFV, reference compound]    > 6.3 µM
2) Cc1ccnc2c1NC(=O)c1cccnc1N2C1CC1 [NVP, reference compound]    > 15 µM

###

Catalogue of pEC50 readings, one per entry.
Tested on: HIV-1 E138K
Test: Antiviral activity against HIV-1 mutant E138K in MT-4 cells
Assay type: cell-based
Conditions: MT-4 cells; mean ± SD, n ≥ 3; read-out: EC50 E138K
pEC50: −log10 of the molar value.
Measured Attribute: pEC50

1) O=C1Nc2ccc(Cl)cc2[C@@](C#CC2CC2)(C(F)(F)F)O1 [EFV, reference compound]    8.27
2) Cc1ccnc2c1NC(=O)c1cccnc1N2C1CC1 [NVP, reference compound]    6.84

###

Assay: in vitro
Details: human, CC50
The following compounds are listed with their measured CC50 values.
Measured Attribute: CC50

1) N#Cc1ccc(Nc2ncc(F)c(Nc3c(F)cc(-c4ccncc4)cc3F)n2)cc1 [A23]    21 µM
2) Cc1cc(-c2ccc(C#N)cc2)cc(C)c1Oc1nc(Nc2ccc(C#N)cc2)ncc1F [A6]    219 µM
3) N#Cc1ccc(Nc2ncc(Cl)c(Oc3ccc(-c4ccc(C#N)cc4)cc3F)n2)cc1 [B1]    39 µM
4) N#Cc1ccc(Nc2ncc(Cl)c(Oc3ccc(-c4ccncc4)cc3F)n2)cc1 [B12]    > 48 µM
5) N#Cc1ccc(Nc2ncc(Cl)c(Nc3c(F)cc(-c4ccncc4)cc3F)n2)cc1 [B21]    1.3 µM
6) COc1cc(-c2ccncc2)ccc1Oc1nc(Nc2ccc(C#N)cc2)ncc1Cl [B15]    > 47 µM
7) Cc1cc(-c2ccncc2)ccc1Nc1nc(Nc2ccc(C#N)cc2)ncc1Cl [B19]    > 48 µM
8) Cc1cc(-c2ccc(C#N)cc2)cc(C)c1Oc1nc(Nc2ccc(C#N)cc2)ncc1Cl [B5]    39 µM
9) Cc1cc(-c2ccc(C#N)cc2)ccc1Oc1nc(Nc2ccc(C#N)cc2)ncc1Cl [B3]    > 46 µM
10) N#Cc1ccc(Nc2ncc(Cl)c(Nc3ccc(-c4ccc(C#N)cc4)cc3F)n2)cc1 [B6]    > 45 µM
11) N#Cc1ccc(Nc2ncc(F)c(Oc3ccc(-c4ccncc4)cc3Cl)n2)cc1 [A14]    > 48 µM
12) COc1cc(-c2ccncc2)ccc1Oc1nc(Nc2ccc(C#N)cc2)ncc1F [A16]    > 45 µM
13) N#Cc1ccc(Nc2ncc(F)c(Oc3ccc(-c4ccc(C#N)cc4)cc3Cl)n2)cc1 [A2]    > 45 µM
14) Cc1cnc(Nc2ccc(C#N)cc2)nc1Nc1c(F)cc(-c2ccc(C#N)cc2)cc1F [compound 6, reference compound]    > 285 µM
15) N#Cc1ccc(Nc2ncc(F)c(Nc3ccc(-c4ccncc4)cc3Cl)n2)cc1 [A20]    > 48 µM
16) Cc1cc(-c2ccc(C#N)cc2)ccc1Nc1nc(Nc2ccc(C#N)cc2)ncc1Cl [B8]    > 46 µM
17) N#Cc1ccc(Nc2ncc(F)c(Nc3c(F)cc(-c4ccc(C#N)cc4)cc3F)n2)cc1 [A11]    > 45 µM
18) COc1cc(-c2ccncc2)ccc1Nc1nc(Nc2ccc(C#N)cc2)ncc1Cl [B20]    164 µM

###

Assay: Human liver microsomal stability assay
Format: in vitro ADME
Settings: human, microsomes
Measured Attribute: microsomal CLint at 1 μmol/L (µL/min/mg)

1) Cc1cc(-c2ccc(C#N)cc2)cc(C)c1Nc1nc(Nc2ccc(C#N)cc2)ncc1F    57

###

System: six CYP isoenzymes (not named; range over all six)
Experiment: CYP inhibition, six isoenzymes (summary range)
Type: in vitro ADME
Conditions: human, human liver microsomes
Measured Attribute: IC50 at 15 min

1) Cc1cc(-c2ccc(C#N)cc2)cc(C)c1Nc1nc(Nc2ccc(C#N)cc2)ncc1F    6.99 to 25 µM

###

Molecular target: CYP3A4-T (Homo sapiens)
Sequence (P08684 whole entry): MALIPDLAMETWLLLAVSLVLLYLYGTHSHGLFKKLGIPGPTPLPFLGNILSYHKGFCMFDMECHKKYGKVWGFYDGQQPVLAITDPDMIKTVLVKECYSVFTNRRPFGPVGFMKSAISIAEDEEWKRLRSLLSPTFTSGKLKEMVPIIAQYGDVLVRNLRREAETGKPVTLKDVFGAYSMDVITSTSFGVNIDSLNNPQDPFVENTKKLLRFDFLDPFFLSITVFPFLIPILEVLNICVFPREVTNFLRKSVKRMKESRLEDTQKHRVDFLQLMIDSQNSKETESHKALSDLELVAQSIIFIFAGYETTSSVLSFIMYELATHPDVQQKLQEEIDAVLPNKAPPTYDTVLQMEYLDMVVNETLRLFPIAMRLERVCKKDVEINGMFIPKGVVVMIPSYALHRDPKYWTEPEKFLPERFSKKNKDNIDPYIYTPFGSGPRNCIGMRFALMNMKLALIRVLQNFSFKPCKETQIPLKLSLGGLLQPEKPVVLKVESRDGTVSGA
Measured Attribute: IC50

1) Cc1cc(-c2ccc(C#N)cc2)cc(C)c1Nc1nc(Nc2ccc(C#N)cc2)ncc1F [A12]    > 25 µM

###

Test: PK study in SD rats
Format: in vivo
Conditions: male, Sprague-Dawley, plasma, po; SD rat, 10.0 mg/kg p.o.
Measured Attribute: Tmax (h)

1. Cc1cc(-c2ccc(C#N)cc2)cc(C)c1Nc1nc(Nc2ccc(C#N)cc2)ncc1F    1

###

Tested on: HIV-1 E138K
Experiment: Antiviral activity against HIV-1 mutant E138K in MT-4 cells
Format: cell-based
Settings: Human immunodeficiency virus 1, MT4, read-out: EC50 E138K
Hi! Could you tag entries with EC50 below 8 nM as Yes, and those at or above as No? Much appreciated.

1. Cc1cc(-c2ccncc2)cc(C)c1Nc1nc(Nc2ccc(C#N)cc2)ncc1F [A24]    No
2. Cc1cc(-c2ccc(C#N)cc2)ccc1Nc1nc(Nc2ccc(C#N)cc2)ncc1F [A9]    No
3. N#Cc1ccc(Nc2ncc(F)c(Oc3ccc(-c4ccc(C#N)cc4)cc3F)n2)cc1 [A1]    No
4. Cc1cnc(Nc2ccc(C#N)cc2)nc1Nc1c(F)cc(-c2ccc(C#N)cc2)cc1F [compound 6, reference compound]    No
5. COc1cc(-c2ccncc2)ccc1Oc1nc(Nc2ccc(C#N)cc2)ncc1F [A16]    No
6. N#Cc1ccc(Nc2ncc(F)c(Nc3ccc(-c4ccc(C#N)cc4)cc3F)n2)cc1 [A7]    No
7. N#Cc1ccc(Nc2ncc(Cl)c(Nc3c(F)cc(-c4ccc(C#N)cc4)cc3F)n2)cc1 [B10]    Yes
8. Cc1cc(C#N)cc(C)c1Oc1nc(Nc2ccc(C#N)cc2)nc(N)c1Br [ETR, etravirine, reference compound]    Yes
9. Cc1cc(-c2ccc(C#N)cc2)cc(C)c1Nc1nc(Nc2ccc(C#N)cc2)ncc1Cl [B11]    No
10. N#Cc1ccc(Nc2ncc(F)c(Nc3c(F)cc(-c4ccc(C#N)cc4)cc3F)n2)cc1 [A11]    Yes
11. Cc1cc(-c2ccc(C#N)cc2)cc(C)c1Nc1nc(Nc2ccc(C#N)cc2)ncc1F [A12]    Yes

###

Assay: PK study in SD rats
Type: in vivo
Conditions: male, Sprague-Dawley, plasma, po; SD rat, 10.0 mg/kg p.o.
Measured Attribute: AUC(0-inf)

1) Cc1cc(-c2ccc(C#N)cc2)cc(C)c1Nc1nc(Nc2ccc(C#N)cc2)ncc1F [A12]    8930 ng·h/mL

###

Test: in vitro
Conditions: human, CC50
Reported CC50 values for the following molecules.
Measured Attribute: CC50

1. N#Cc1ccc(Nc2ncc(Cl)c(Oc3ccc(-c4ccc(C#N)cc4)cc3Cl)n2)cc1 [B2]    35 µM
2. Cc1cc(-c2ccc(C#N)cc2)ccc1Oc1nc(Nc2ccc(C#N)cc2)ncc1F [A3]    > 48 µM
3. Cc1cc(-c2ccncc2)ccc1Oc1nc(Nc2ccc(C#N)cc2)ncc1Cl [B14]    > 48 µM
4. Cc1cc(-c2ccncc2)cc(C)c1Oc1nc(Nc2ccc(C#N)cc2)ncc1Cl [B16]    243 µM
5. COc1cc(-c2ccc(C#N)cc2)ccc1Nc1nc(Nc2ccc(C#N)cc2)ncc1Cl [B9]    236 µM
6. N#Cc1ccc(Nc2ncc(Cl)c(Nc3ccc(-c4ccncc4)cc3F)n2)cc1 [B17]    > 48 µM
7. N#Cc1ccc(Nc2ncc(Cl)c(Nc3ccc(-c4ccc(C#N)cc4)cc3Cl)n2)cc1 [B7]    > 273 µM
8. N#Cc1ccc(Nc2ncc(F)c(Nc3ccc(-c4ccc(C#N)cc4)cc3F)n2)cc1 [A7]    > 45 µM
9. Cc1cc(-c2ccncc2)ccc1Oc1nc(Nc2ccc(C#N)cc2)ncc1F [A15]    > 50 µM
10. N#Cc1ccc(Nc2ncc(Cl)c(Nc3ccc(-c4ccncc4)cc3Cl)n2)cc1 [B18]    > 46 µM
11. Cc1cc(C#N)cc(C)c1Oc1nc(Nc2ccc(C#N)cc2)nc(N)c1Br [ETR, etravirine, reference compound]    > 4.6 µM
12. N#Cc1ccc(Nc2ncc(F)c(Oc3c(F)cc(-c4ccc(C#N)cc4)cc3F)n2)cc1 [A5]    > 45 µM
13. COc1cc(-c2ccc(C#N)cc2)ccc1Oc1nc(Nc2ccc(C#N)cc2)ncc1F [A4]    > 45 µM
14. N#Cc1ccc(Nc2ncc(Cl)c(Oc3ccc(-c4ccncc4)cc3Cl)n2)cc1 [B13]    > 46 µM
15. N#Cc1ccc(Nc2ncc(F)c(Oc3c(F)cc(-c4ccncc4)cc3F)n2)cc1 [A17]    > 48 µM
16. N#Cc1ccc(Nc2ncc(F)c(Oc3ccc(-c4ccc(C#N)cc4)cc3F)n2)cc1 [A1]    > 45 µM
17. Cc1cc(-c2ccncc2)cc(C)c1Nc1nc(Nc2ccc(C#N)cc2)ncc1Cl [B22]    260 µM
18. N#Cc1ccc(Nc2ncc(F)c(Nc3ccc(-c4ccncc4)cc3F)n2)cc1 [A19]    > 50 µM
19. COc1cc(-c2ccc(C#N)cc2)ccc1Nc1nc(Nc2ccc(C#N)cc2)ncc1F [A10]    > 46 µM
